Origin of the recorded values: the CheMixHub drug solubility set

Test: xn = mol fraction of the nth substance listed, in the solute-free solvent
Conditions: 298.15 K; x2 = 0.5454
For each of the molecules below, state its solubility (g/100 g solution).
Answers are plain numbers.

* O=C1C=CC(=O)N1c1ccccc1Br + CC(C)O + O | 7.99

Quick request: solubility (g/100 g solution) for each listed item, please.
1. O=c1cc(CBr)c2ccccc2[nH]1 + CCCO + O
2. O=c1cc(CBr)c2ccccc2[nH]1 + CC(C)O + O
3. CC(C)C(=O)Nc1ccc([N+](=O)[O-])c(C(F)(F)F)c1 + CC(C)O + O
4. Nc1ncc(Br)nc1Br + CC(C)O + O

Result:
[0.156, 0.114, 20.1, 0.344]

---

For each of the molecules below, state its solubility (g/100 g solution).
Test: xn = mol fraction of the nth substance listed, in the solute-free solvent
Conditions: 303.15 K; x2 = 0.06974
One number for each entry.

• Nc1ncc(Br)nc1Br + CC(C)O + O = 0.0809
• O=C1C=CC(=O)N1c1ccccc1Br + CC(C)O + O = 2.55
• O=c1cc(CBr)c2ccccc2[nH]1 + CCCO + O = 0.0807

Quick request: solubility (g/100 g solution) for each listed item, please.
1. O=c1cc(CBr)c2ccccc2[nH]1 + CC(C)O + O
2. CC(C)C(=O)Nc1ccc([N+](=O)[O-])c(C(F)(F)F)c1 + CC(C)O + O

Result:
1: 0.0641; 2: 0.0971

---

Test: xn = mol fraction of the nth substance listed, in the solute-free solvent
Conditions: 318.15 K; x2 = 0.1666
Given measured solubility (g/100 g solution), output Fulfilled if it is greater than or equal to 2 and Not fulfilled if not.

- O=c1cc(CBr)c2ccccc2[nH]1 + CCCO + O: Not fulfilled
- O=c1cc(CBr)c2ccccc2[nH]1 + CC(C)O + O: Not fulfilled
- O=C1C=CC(=O)N1c1ccccc1Br + CC(C)O + O: Fulfilled
- CC(C)C(=O)Nc1ccc([N+](=O)[O-])c(C(F)(F)F)c1 + CC(C)O + O: Fulfilled

Now for a further compound.
Problem: Does the compound Nc1ncc(Br)nc1Br + CC(C)O + O have recorded solubility (g/100 g solution) that is 2 or more?
Result: Not fulfilled

---

For each of the compounds below, state its solubility (g/100 g solution).
Assay: xn = mol fraction of the nth substance listed, in the solute-free solvent
Details: 308.15 K; x2 = 0.06974

// known answers, use as guide
• Nc1ncc(Br)nc1Br + CC(C)O + O = 0.0905
• O=c1cc(CBr)c2ccccc2[nH]1 + CC(C)O + O = 0.079
• CC(C)C(=O)Nc1ccc([N+](=O)[O-])c(C(F)(F)F)c1 + CC(C)O + O = 0.121

Quick request: solubility (g/100 g solution) for each listed item, please.
1. O=c1cc(CBr)c2ccccc2[nH]1 + CCCO + O
2. O=C1C=CC(=O)N1c1ccccc1Br + CC(C)O + O

Result:
0.0957
3.1

---

Experiment: xn = mol fraction of the nth substance listed, in the solute-free solvent
Conditions: 283.15 K; x2 = 0.2307
For each of the compounds below, state its solubility (g/100 g solution).
Give bare numbers.

// known answers, use as guide
• CC(C)C(=O)Nc1ccc([N+](=O)[O-])c(C(F)(F)F)c1 + CC(C)O + O = 1.83
• O=c1cc(CBr)c2ccccc2[nH]1 + CCCO + O = 0.0907

Quick request: solubility (g/100 g solution) for each listed item, please.
1. O=C1C=CC(=O)N1c1ccccc1Br + CC(C)O + O
2. Nc1ncc(Br)nc1Br + CC(C)O + O
3. O=c1cc(CBr)c2ccccc2[nH]1 + CC(C)O + O

Result:
1: 3.57; 2: 0.157; 3: 0.0596
